# test.description: Cell viability assay in S16 Pmp22-HiBiT cells - Confirmatory screen
# measurement.context: S16 Schwann Pmp22-HiBiT viability, CellTiter-Glo, 24 h; series mostly up to 27.9 µM
# Excerpt: Assay Provider: Jim Inglese Ph.D. National Center for Advancing Translational Science, National Institutes of Health, Rockville, MD CMT is a heterogeneous group of neurological disorders that affect approximately 1 in 2,500 people. In particular, the most common form of CMT, CMT1A is genetically linked to the duplication of the PMP22 gene which leads to Schwann cell overexpression, thus manifesting itself as a typical case of dose-sensitive diseases. […]
Records with an inconclusive call do not appear. Activity calls are given as the source filed them. The call rests on the fitted dose curve; in most records, active means well fitted cell-killing curve with a large enough effect; inconclusive means small, poorly fitted or top-dose-only effect, or effect the other way; inactive means flat fitted curve, though single readings scatter.
Returns: one label drawn from active, inactive

Prompt line: What did the test return for CCC(Sc1nc2ccccc2c2nc(-c3ccccc3)nn12)C(=O)Nc1cccc(OC)c1 (stereo unspecified) ?
Response line: inactive

Prompt line: # outcome recorded in this test, key = CCC(=O)C1=C(c2cccc([N+](=O)[O-])c2)N(C(=O)CC)n2c(nnc2C2CCCCC2)S1
Response line: inactive

Prompt line: Just curious, what result did CCS(=O)(=O)c1ncc(Cl)c(C(=O)Nc2c(C(=O)c3ccc(C)cc3)oc3ccccc23)n1 get here?
Response line: inactive

Prompt line: Please state the recorded outcome for this compound: CCN(CC)CCNC(=O)c1cc(-c2ccc(Br)s2)nc2ccccc12
Response line: active

Prompt line: What call does the record list for COc1ccc(NC(=O)CCS(=O)(=O)c2nc(-c3cccs3)cc(C(F)(F)F)n2)cc1 ?
Response line: inactive

Prompt line: What is the recorded call for this compound in the test? COc1ccc(NC(=O)c2oc3ccccc3c2NC(=O)Cc2ccc(F)cc2)c(OC)c1
Response line: inactive

Prompt line: Tell me the assay call for O=C(Cn1c(-c2cccs2)cc2cc(F)ccc21)NCCCN1CCN(c2ccc(F)cc2)CC1 please.
Response line: inactive

Prompt line: Identify the outcome logged in this assay for the compound shown: O=S(=O)(NCC(c1ccco1)S(=O)(=O)c1cccs1)c1ccc(Cl)cc1 (stereo unspecified)
Response line: inactive

Prompt line: Recorded test call requested for COc1ccc(NC(=O)Cn2c(=O)n(CCC(=O)NCc3ccccc3OC)c(=O)c3ccccc32)cc1Cl
Response line: active

Prompt line: Tell me the recorded outcome of this test for CCCN1CCN(CCCNC(=O)Cn2c(-c3cccs3)cc3ccccc32)CC1 .
Response line: inactive

Prompt line: Tell me the recorded outcome of this test for CCCn1c(=N)c(C(=O)NC(C)c2ccccc2)cc2c(=O)n3ccccc3nc21 (stereo unspecified) .
Response line: inactive

Prompt line: Assay outcome for Cc1cc(C)c(NC(=O)Cn2c(=O)n(Cc3ccco3)c(=O)c3ccc(C(=O)NC4CCCC4)cc32)c(C)c1 : what was it?
Response line: inactive

Prompt line: Would you mind telling me which call this test gave Cc1ccc(S(=O)(=O)c2nnn3c2nc(NC2CCCCCC2)c2sccc23)cc1C ?
Response line: inactive

Prompt line: Please state the recorded outcome for this compound: CCc1ccc(C(=O)c2cn(CC(=O)Nc3ccc4c(c3)OCO4)c3ccc(CC)cc3c2=O)cc1
Response line: active

Prompt line: // param item: COc1ccccc1Nc1nn2c(=O)c3ccc(C(=O)Nc4ccc(F)cc4)cc3nc2s1 ; yields the recorded call
Response line: active

Prompt line: I would be grateful if you could indicate the recorded call for COc1cccc(-n2c(SCC(=O)c3ccc(Cl)cc3)nc3c([nH]c4ccccc43)c2=O)c1 .
Response line: active

Prompt line: Tell me the recorded outcome of this test for Cc1ccc(NC(=O)N2CCc3cc(S(=O)(=O)N4CCC(C)CC4)ccc32)cc1F .
Response line: inactive

Prompt line: Short answer needed: outcome of this test for COc1ccc(-c2cc(C(F)(F)F)nc(S(C)(=O)=O)n2)cc1 ?
Response line: active

Prompt line: Which outcome was assigned to CCC(=O)C1=C(c2cccc([N+](=O)[O-])c2)N(C(=O)CC)n2c(nnc2-c2ccccc2)S1 in this test?
Response line: inactive

Prompt line: Which outcome was entered for the compound COc1ccc(Br)c2c1-c1nc(NC(=O)c3cccc(C)c3)sc1C2 in this test?
Response line: inactive

Prompt line: Assay outcome for CCOC(=O)c1c(NC(=O)c2nc(S(C)(=O)=O)ncc2Cl)sc(C(C)=O)c1C : what was it?
Response line: active

Prompt line: Which outcome did this test record for the compound Cc1cccc(CS(=O)(=O)c2ncc(Cl)c(C(=O)Nc3nc4ccc(F)cc4s3)n2)c1 ?
Response line: active

Prompt line: What outcome does the record of this test show for Cc1ccc(CN2C(=O)C(O)(c3c(C)[nH]c4ccccc34)c3ccccc32)cc1 (stereo unspecified) ?
Response line: inactive

Prompt line: Dear colleague, could you share the recorded outcome for CCN(CC)c1ccc(NC(=O)C2COc3ccc(OC)cc3C2)c(C)c1 (stereo unspecified) when you have a moment?
Response line: inactive

Prompt line: Tell me the recorded outcome of this test for Cc1ccccc1S(=O)(=O)Cc1ccc(C(=O)N2CCN(c3cccc(Cl)c3)CC2)o1 .
Response line: inactive

Prompt line: Please state the recorded outcome for this compound: Cc1c(Cl)cccc1NC(=O)c1oc2ccc(S(=O)(=O)N3CCC4(CC3)OCCO4)cc2c1C
Response line: inactive

Prompt line: For COc1ccccc1CNC(=O)CSc1nnc(C)c2c(C)n(-c3ccccc3)nc12 , what call appears in the results of this test?
Response line: inactive

Prompt line: Dear all, I need the recorded test outcome for O=C(Cn1c(-c2cccs2)cc2ccccc21)NCCCN1CCN(c2ccc(F)cc2)CC1 , thank you.
Response line: inactive

Prompt line: Would you mind telling me which call this test gave CCC(C)NC(=O)C1CCN(C(=O)c2cc3sccc3n2Cc2ccc(Cl)cc2)CC1 (stereo unspecified) ?
Response line: active

Prompt line: Each compound tested received a call. Report the one for Clc1cccc(-c2noc3ncnc(NC4CCCCC4)c23)c1 .
Response line: inactive

Prompt line: What did this assay record as the result for COc1ccccc1Nc1c2c(nc3ccc(NC(=O)/C=C/c4cccc(OC)c4OC)cc13)CCCC2 ?
Response line: active

Prompt line: Fill in: this test's call for COCCCNC(=O)c1ccc(-n2c(-c3ccccc3)cc3c2CCC(C)C3)cc1 (stereo unspecified) is ___
Response line: inactive

Prompt line: Record request — test call for O=C(CCS(=O)(=O)c1nc(-c2cccs2)cc(C(F)(F)F)n1)Nc1ccc(OC(F)(F)F)cc1
Response line: inactive

Prompt line: Can you look up the reported call for COC(=O)c1ccccc1NC(=O)c1nc(S(=O)(=O)Cc2cccc(C)c2)ncc1Cl for me?
Response line: inactive

Prompt line: What is the recorded call for this compound in the test? CCOCCCNC(=O)c1ccc(-n2c(-c3ccccc3)cc3c2CCC(C)C3)cc1 (stereo unspecified)
Response line: inactive

Prompt line: Kindly provide the recorded test outcome for the following compound: Cc1ccc(OCC(=O)Nc2ccc3nc(SCC(=O)N4CCc5ccccc54)sc3c2)cc1
Response line: inactive
